Experiment: in vivo
Conditions: rat, in vivo, po, 20 mg/kg, Tmax, tofacitinib 20 mg/kg oral; CON rats
Result type: Tmax

Record C[C@@H]1CCN(C(=O)CC#N)C[C@@H]1N(C)c1ncnc2[nH]ccc12 . Reported Tmax: 50 min

====

Assay: in vivo
Conditions: rat, in vivo, po, 20 mg/kg, Tmax, tofacitinib 20 mg/kg oral; LC rats
Result type: Tmax (min)
Give bare numbers, in min.

# Tmax (compound: C[C@@H]1CCN(C(=O)CC#N)C[C@@H]1N(C)c1ncnc2[nH]ccc12 ) is 55.7

====

Test: in vivo
Conditions: rat, in vivo, iv, 10 mg/kg, AUC, tofacitinib 10 mg/kg intravenous; LC rats
Result type: AUC

Reported AUC of C[C@@H]1CCN(C(=O)CC#N)C[C@@H]1N(C)c1ncnc2[nH]ccc12 [tofacitinib] : 18900 ng·h/mL

Recorded values, source patent US20240398752A1.
